# Test system: elk sperm
# assayText: Post thaw DNA fragmentation of elk sperm (Example 3)
# Type: cell-based
# assayConditions: 48 HR; unit assumed
experimentalReadout: Post Thaw DNA fragmentation Elk, Pre-sort (%)
State just the number; it will be interpreted in %.

Problem: Please list Post Thaw DNA fragmentation Elk, Pre-sort recorded for the compound O=S(=O)([O-])c1ccc(N=Nc2c(O)ccc3cc(S(=O)(=O)[O-])ccc23)cc1.[Na+].[Na+] [Yellow 6]
Solution: 3.7

---

# Test system: elk sperm
# assayText: Post thaw DNA fragmentation of elk sperm (Example 3)
# Type: cell-based
# assayConditions: 0 HR; unit assumed
experimentalReadout: Post Thaw DNA fragmentation Elk, Post Sort (%)
State just the number; it will be interpreted in %.

Problem: Please list Post Thaw DNA fragmentation Elk, Post Sort recorded for the compound O=S(=O)([O-])c1ccc(N=Nc2c(O)ccc3cc(S(=O)(=O)[O-])ccc23)cc1.[Na+].[Na+]
Solution: 0

These measurements were taken from patent US9140688B2.
